# procedure-summary: Solubility in japanese pharmacopoeia […] fluid at pH 6.8
# Assay type: physicochemical
quantity-name: solubility (µg/mL)

Example entries begin here.
structure_string=CN1CCc2nc(C(=O)N[C@@H]3C[C@@H](C(=O)N(C)C)CC[C@@H]3NC(=O)c3cnc4cc(Cl)ccc4c3)sc2C1 uom=µg/mL reported=110
structure_string=CN1CCc2nc(C(=O)N[C@@H]3C[C@@H](C(=O)N(C)C)CC[C@@H]3NC(=O)c3cc(=O)c4cc(Cl)ccc4[nH]3)sc2C1 uom=µg/mL reported=73
structure_string=CN1CCc2nc(C(=O)N[C@@H]3C[C@@H](C(=O)N(C)C)CC[C@@H]3NC(=O)c3cc4ccc(Cl)cc4nn3)sc2C1 uom=µg/mL reported=730
structure_string=CN1Cc2nc(C(=O)N[C@@H]3C[C@@H](C(=O)N(C)C)CC[C@@H]3NC(=O)c3ccc4cc(Cl)ccc4c3)sc2C1 uom=µg/mL reported=100
structure_string=CN1CCc2nc(C(=O)N[C@@H]3C[C@@H](C(=O)N(C)C)CC[C@@H]3NC(=O)C3=Cc4ccc(Cl)cc4OC3)sc2C1 uom=µg/mL reported=270
structure_string=CN1CCc2nc(C(=O)N[C@@H]3C[C@@H](C(=O)N(C)C)CC[C@@H]3NC(=O)c3ccc4cc(Cl)ccc4c3)sc2C1 uom=µg/mL reported=61
structure_string=CN1CCc2nc(C(=O)N[C@@H]3C[C@@H](C(=O)N(C)C)CC[C@@H]3NC(=O)c3cc4ccc(Cl)cc4cn3)sc2C1 uom=µg/mL reported=41

[a] CN1Cc2nc(C(=O)N[C@@H]3C[C@@H](C(=O)N(C)C)CC[C@@H]3NC(=O)c3cc4cc(Cl)ccc4[nH]3)sc2C1
[b] CN1Cc2nc(C(=O)N[C@@H]3C[C@@H](C(=O)N(C)C)CC[C@@H]3NC(=O)c3cc4ccc(Cl)cc4cn3)sc2C1
[c] CN1CCc2nc(C(=O)N[C@@H]3C[C@@H](C(=O)N(C)C)CC[C@@H]3NC(=O)c3ccc4cc(Cl)ccc4n3)sc2C1
[d] CN1CCc2nc(C(=O)N[C@@H]3C[C@@H](C(=O)N(C)C)CC[C@@H]3NC(=O)c3cc4cc(Cl)ccc4[nH]3)sc2C1
[e] CN1CCc2nc(C(=O)N[C@@H]3C[C@@H](C(=O)N(C)C)CC[C@@H]3NC(=O)c3cc4ccc(Cl)cc4[nH]c3=O)sc2C1
**Query** Arrange the 5 compounds by rising solubility, starting with the smallest. Provide the labels, sequenced as the question asks.
**Result** d, e, c, b, a

* * *

# procedure-summary: Solubility in japanese pharmacopoeia first fluid at pH 1.2
# Type: physicochemical
The following molecules are shown together with reported solubility values.

Consider the worked cases shown below.
structure_string=CN1CCc2nc(C(=O)N[C@@H]3C[C@@H](C(=O)N(C)C)CC[C@@H]3NC(=O)c3cnc4cc(Cl)ccc4c3)sc2C1 reported="> 1000 µg/mL"
structure_string=CN1CCc2nc(C(=O)N[C@@H]3C[C@@H](C(=O)N(C)C)CC[C@@H]3NC(=O)c3cc4cc(Cl)ccc4[nH]3)sc2C1 reported="124 µg/mL"
structure_string=CN1Cc2nc(C(=O)N[C@@H]3C[C@@H](C(=O)N(C)C)CC[C@@H]3NC(=O)c3cc4ccc(Cl)cc4cn3)sc2C1 reported="> 1000 µg/mL"

Next up:
**Query** Item `CN1CCc2nc(C(=O)N[C@@H]3C[C@@H](C(=O)N(C)C)CC[C@@H]3NC(=O)C3=NS(=O)(=O)c4cc(Cl)ccc4N3)sc2C1` : provide solubility
**Result** > 1000 µg/mL

* * *

# procedure-summary: n-octanol to japanese pharmacopoeia second fluid distribution coefficient, log D at pH 6.8
# Assay type: physicochemical
quantity-name: logD

The examples below pair each entry with its known result.
structure_string=CN1CCc2nc(C(=O)N[C@@H]3C[C@@H](C(=O)N(C)C)CC[C@@H]3NC(=O)c3cc4ccc(Cl)cc4[nH]c3=O)sc2C1 quantity_name=logD reported=2.1
structure_string=CN1Cc2nc(C(=O)N[C@@H]3C[C@@H](C(=O)N(C)C)CC[C@@H]3NC(=O)c3cc4ccc(Cl)cc4cn3)sc2C1 quantity_name=logD reported=2.2

[1] CN1CCc2nc(C(=O)N[C@@H]3C[C@@H](C(=O)N(C)C)CC[C@@H]3NC(=O)c3ccc4cc(Cl)ccc4c3)sc2C1
[2] CN1CCc2nc(C(=O)N[C@@H]3C[C@@H](C(=O)N(C)C)CC[C@@H]3NC(=O)c3cc4ccc(Cl)cc4nn3)sc2C1
**Query** // returns 1 or 2 , whichever has the lower logD Kindly state the label of the option you pick.
**Result** 2

* * *

# procedure-summary: n-octanol to japanese pharmacopoeia second fluid distribution coefficient, log D at pH 6.8
# Format: physicochemical
quantity-name: logD

structure_string=CN1Cc2nc(C(=O)N[C@@H]3C[C@@H](C(=O)N(C)C)CC[C@@H]3NC(=O)c3cc4cc(Cl)ccc4[nH]3)sc2C1 quantity_name=logD reported=2.6
structure_string=CN1CCc2nc(C(=O)N[C@@H]3C[C@@H](C(=O)N(C)C)CC[C@@H]3NC(=O)C3=Cc4ccc(Cl)cc4OC3)sc2C1 quantity_name=logD reported=2.7
structure_string=CN1CCc2nc(C(=O)N[C@@H]3C[C@@H](C(=O)N(C)C)CC[C@@H]3NC(=O)c3ccc4cc(Cl)ccc4n3)sc2C1 quantity_name=logD reported=2.6
structure_string=CN1CCc2nc(C(=O)N[C@@H]3C[C@@H](C(=O)N(C)C)CC[C@@H]3NC(=O)c3cnc4cc(Cl)ccc4c3)sc2C1 quantity_name=logD reported=2
structure_string=CN1Cc2nc(C(=O)N[C@@H]3C[C@@H](C(=O)N(C)C)CC[C@@H]3NC(=O)c3ccc4cc(Cl)ccc4c3)sc2C1 quantity_name=logD reported=2.7
